Origin of values: ChEMBL document CHEMBL4190334

# assayedTarget: Polyunsaturated fatty acid 5-lipoxygenase (Rattus norvegicus)
# Sequence (P12527 whole entry): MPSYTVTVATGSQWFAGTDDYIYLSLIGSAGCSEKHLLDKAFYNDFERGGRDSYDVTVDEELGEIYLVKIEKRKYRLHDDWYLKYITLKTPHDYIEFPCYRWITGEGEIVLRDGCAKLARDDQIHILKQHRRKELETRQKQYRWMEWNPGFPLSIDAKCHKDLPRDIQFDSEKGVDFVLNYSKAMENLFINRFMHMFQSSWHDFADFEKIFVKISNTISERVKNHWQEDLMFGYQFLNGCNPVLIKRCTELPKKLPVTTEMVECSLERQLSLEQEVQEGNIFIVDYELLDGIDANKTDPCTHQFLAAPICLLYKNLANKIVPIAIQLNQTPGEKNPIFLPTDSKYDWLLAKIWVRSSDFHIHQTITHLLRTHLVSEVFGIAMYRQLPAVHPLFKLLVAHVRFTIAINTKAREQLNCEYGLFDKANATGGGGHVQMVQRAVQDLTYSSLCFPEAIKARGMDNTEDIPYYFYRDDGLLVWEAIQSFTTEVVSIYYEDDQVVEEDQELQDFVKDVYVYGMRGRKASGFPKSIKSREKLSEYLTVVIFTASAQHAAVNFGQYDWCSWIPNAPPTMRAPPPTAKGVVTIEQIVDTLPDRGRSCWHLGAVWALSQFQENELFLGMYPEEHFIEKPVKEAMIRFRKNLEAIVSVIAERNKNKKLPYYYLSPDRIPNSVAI
# methodDescription: Inhibition of 5-LOX in RBL1 cells assessed as reduction in LTB4 production using A23187-induced arachidonic acid as substrate preincubated for 2 hrs followed by A23187 addition measured after 15 mins by LC-MS/MS analysis
Quick reference: IC50 of the listed items.

molecule: CC(C)Cc1ccc(C(C)c2nnn[nH]2)cc1 (stereo not drawn)
assayedTarget: Polyunsaturated fatty acid 5-lipoxygenase (Rattus norvegicus)
IC50: > 100 µM

molecule: CC(C)Cc1ccc(C(C)C(=O)O)cc1 (stereo not drawn) [IBUPROFEN]
assayedTarget: Polyunsaturated fatty acid 5-lipoxygenase (Rattus norvegicus)
IC50: > 100 µM

Next:
Consider the molecule CC(C)Cc1ccc(C2CC(O)=CC2=O)cc1 (stereo not drawn) and give its measured IC50. > 100 µM
